The entries below are paired with their reported EC50.
# Tested on: P388
# run_description: Antiproliferative activity against mouse P388 cells
# Format: functional
# reported_conditions: read-out: ED50 (the source's name)

Consider the following illustrative entries.
C[C@@H]1O[C@H]2OC(C)(OC/C=C3\CC[C@H]4[C@@H]5CC[C@H]6Cc7nc8c(nc7C[C@]6(C)[C@H]5[C@@H](O)C[C@]34C)C[C@@H]3CC[C@@H]4[C@H]([C@@H](O)C[C@]5(C)/C(=C/COC6(C)O[C@@H]7O[C@@H](C)[C@H](O)[C@@H](O)[C@H]7O6)CC[C@@H]45)[C@@]3(C)C8)O[C@@H]2[C@H](O)[C@H]1O (stereo partly drawn) : > 10 µg/mL
CC(=O)O[C@@H]1[C@@H](OC(C)=O)[C@H](C)O[C@@H](OC/C=C2\CC[C@H]3[C@@H]4CCC5=CC(=O)CC[C@]5(C)[C@H]4[C@@H](O)C[C@]23C)[C@@H]1OC(C)=O : > 10 µg/mL

Prompt: Which measured EC50 value corresponds to C[C@@H]1O[C@H]2OC(C)(OC/C=C3\CC[C@H]4[C@@H]5CCC6=CC(=O)CC[C@]6(C)[C@H]5[C@@H](O)C[C@]34C)O[C@@H]2[C@H](O)[C@H]1O (stereo partly drawn) ?
Response: 5.2 µg/mL

###

# Tested on: P388
# run_description: Antiproliferative activity against mouse P388 cells
# Assay type: functional
# reported_conditions: read-out: ED50 (the source's name)
measured_endpoint: EC50 (µg/mL)

CC(=O)OC/C=C1\CC[C@H]2[C@@H]3CC[C@H]4CC(=O)CC[C@]4(C)[C@H]3[C@@H](O)C[C@]12C : 16.6

a. C[C@]12Cc3nc4c(nc3C[C@@H]1CC[C@@H]1[C@@H]2[C@@H](O)C[C@]2(C)/C(=C/CO)CC[C@@H]12)C[C@@]1(C)[C@@H](CC[C@@H]2[C@@H]1[C@@H](O)C[C@]1(C)/C(=C/CO)CC[C@@H]21)C4
b. CC(=O)OC/C=C1\CC[C@H]2[C@@H]3CC[C@H]4CC(=O)[C@H](Br)C[C@]4(C)[C@H]3[C@@H](O)C[C@]12C
Prompt: Which has the higher EC50, a or b ? Write down the label of the entry you select.
Response: b
(b: 6.6 µg/mL, a: 1.5 µg/mL)

###

# Test system: P388
# run_description: Antiproliferative activity against mouse P388 cells
# Assay type: functional
# reported_conditions: read-out: ED50 (the source's name)
measured_endpoint: EC50

CC(=O)O[C@@H]1[C@@H](OC(C)=O)[C@H](C)O[C@H]2OC(C)(OC/C=C3\CC[C@H]4[C@@H]5CC[C@H]6Cc7nc8c(nc7C[C@]6(C)[C@H]5[C@@H](O)C[C@]34C)C[C@@H]3CC[C@@H]4[C@H]([C@@H](O)C[C@]5(C)/C(=C/COC6(C)O[C@@H]7O[C@@H](C)[C@H](OC(C)=O)[C@@H](OC(C)=O)[C@H]7O6)CC[C@@H]45)[C@@]3(C)C8)O[C@@H]21 (some centres not stated) : > 10 µg/mL

Here is the next item to consider.
Prompt: Which measured EC50 value corresponds to "CC(=O)O[C@@H]1[C@@H](OC(C)=O)[C@H](C)O[C@@H](OC/C=C2\CC[C@H]3[C@@H]4CC[C@H]5Cc6nc7c(nc6C[C@]5(C)[C@H]4[C@@H](O)C[C@]23C)C[C@@H]2CC[C@@H]3[C@H]([C@@H](O)C[C@]4(C)/C(=C/CO[C@H]5O[C@@H](C)[C@H](OC(C)=O)[C@@H](OC(C)=O)[C@H]5OC(C)=O)CC[C@@H]34)[C@@]2(C)C7)[C@@H]1OC(C)=O" ?
Response: > 10 µg/mL
